- Test system: HOP-92 NSCLC
- ASSAY: NCI-60 one-dose screen, 48 h (100 = growth as untreated, 0 = no growth, -100 = all killed)
- SETTINGS: 10 µM unless noted
This is part of a sample that, as a whole, favours compounds with a hit. Of some 83,000 tested, about 20% had one in any assay.
Attribute: growth
Could you give me the number in %? Just the number is fine.

Guide cases for growth, answers given:
COMPOUND	ENDPOINT RESULT
Cn1cc(-c2csc(-c3cn(C(=O)OC(C)(C)C)c4ccc(Br)cc34)n2)c2cccnc21	98.7
Cc1cccc(C)c1NC(=O)CSC(=S)N1CCCCC1	107
C=C(C)[C@@H]1CC[C@]2(C(=O)O)CC[C@]3(C)[C@H](CC[C@@H]4[C@@]5(C)C/C(=C/c6ccc(OC)cc6)C(=O)C(C)(C)[C@@H]5CC[C@]43C)[C@@H]12	18.9

I have this compound here, COC(=O)C(Cc1ccccc1)n1cc(COc2nc(Cl)nc(Nc3ccc(Cl)cc3)n2)nn1 (centres undefined) , and I need its recorded growth.
105

Also, c1ccc2c(-c3nc(-c4c[nH]c5ncccc45)cs3)c[nH]c2c1 please.
65.7

Next: CC(C)(C)c1[nH]nc2c1C(c1cc3ccccc3[nH]c1=O)Nc1cc(C(=O)OCc3ccccc3)ccc1N2 (centres undefined)
87.7

What do you have for COc1ccc2c(c1)c(-c1nc(-c3c[nH]c4ncccc34)cs1)cn2CCNC(=O)OC(C)(C)C ?
54.9

Now consider Cn1cc(-c2csc(-c3cn(CCN)c4ccc(F)cc34)n2)c2cccnc21 .
48.5

And what about the compound CC(=O)NC1=C(C#N)C(c2ccccc2Cl)c2c(ccc3ccccc23)O1 (centres undefined) ?
72.5

----------
- Tested on: K-562 leukemia
- ASSAY: NCI-60 one-dose screen, 48 h
- SETTINGS: 10 µM unless noted
The panel holds about 83,000 compounds, 20% with a hit somewhere; the sample as a whole holds those more often. Active and inactive are the calls of the source. The calls were made as follows: active = growth percent below 10; inactive = the rest.
Response enum: active, inactive

Reference set, count: 5
SMILES NOTATION	CAT
C/C(=N\Nc1cc(C)c2ccccc2n1)c1ccccn1	active
C[C@@H](Oc1ccc(C(=O)NS(=O)(=O)C(C)(C)C)cc1C(F)(F)F)c1ccc(Oc2ccccc2)cn1	inactive
O=S(=O)(NCCNc1cc(-c2cn(-c3ccccc3)nc2-c2cccc(O)c2)ccn1)c1ccccc1	active
CCN1CCN(C(=O)[C@@]2(C)CC[C@]3(C)CC[C@]4(C)C(=CC(=O)[C@@H]5[C@@]6(C)CC[C@H](OCCC#N)C(C)(C)[C@@H]6CC[C@]54C)[C@@H]3C2)CC1	inactive
Cc1cc2nc3c4cc([N+](=O)[O-])cc([N+](=O)[O-])c4n(CCN(C)C)c3nc2cc1C	inactive

Please share the test call associated with C[Si](C)(C)Cc1ccccc1 .
inactive

Now try Cn1cc(-c2csc(-c3c[nH]c4ccc(F)cc34)n2)c2cccnc21 .
inactive

Likewise for CCOc1ccc(NC(=O)c2ccoc2COc2ccccc2)cc1 ?
inactive

Repeat with Cn1cnc2c1c(=O)n(CCC(=O)Nc1ccc(F)cc1)c(=O)n2C
inactive

----------
- Test system: COLO 205 colon
- ASSAY: NCI-60 one-dose screen, 48 h
- SETTINGS: 10 µM unless noted
About 83,000 compounds went through this panel and 20% of them were active in at least one assay; those are over-represented in the sample as a whole. Active and inactive are the calls of the source. The calls were made as follows: active = growth percent below 10; inactive = the rest.
Bench note: report the call from 1 (yes) (active), 0 (no) (inactive)

Use the examples below as a reference point.
MOLECULE	CAT
Cc1ccc(S(=O)(=O)Nc2ccc(-c3cc(-c4cccc(F)c4)c(C#N)c(=O)[nH]3)cc2)cc1	0 (no)
O=C(N/N=C/c1ccccc1SSc1ccccc1/C=N/NC(=O)c1ccccc1)c1ccccc1	1 (yes)
COc1ccc(-c2cc(-c3cccs3)n(N=O)c(=O)c2C#N)cc1	0 (no)
NC1(N)C=CC2=C(C=C1)C1(N)C3=C(C=CC(N)(N)C=C3)N2C2(N)C3=C(C=CC(N)(N)C=C3)N1C1=C2C=CC(N)(N)C=C1	0 (no)
CCCCCCCC(=O)SCC/C=C/[C@@H]1CC(=O)NCc2cccc(n2)CN(Cc2ccc3ccccc3c2)CC(=O)N[C@@H](C(C)C)C(=O)O1	0 (no)

Hi team, can someone confirm the assay call for COc1cccc(-c2nn(-c3ccccc3)cc2-c2ccnc(NCCCNS(=O)(=O)c3ccc(Br)cc3)c2)c1 ?
0 (no)

Same for O=C1c2ccccc2NC(c2cn(-c3ccccc3)nc2-c2cccs2)N1Cc1ccccc1 (stereo not drawn)
0 (no)

Next up: C=C(C)[C@@H]1CC[C@]2(C)CC[C@]3(C)[C@H](CC[C@@H]4[C@@]5(C)CCCNC(C)(C)[C@@H]5CC[C@]43C)[C@@H]12
1 (yes)

Data origin: PubChem BioAssay (NCI)
